biological target: UniProtKB P21554; experiment: CB1 competitive radioligand binding assay ([3H] SR141716A); parameters: expressed in transfected cells; host or cells: Chem-1 cells
Sequence (P21554 whole entry): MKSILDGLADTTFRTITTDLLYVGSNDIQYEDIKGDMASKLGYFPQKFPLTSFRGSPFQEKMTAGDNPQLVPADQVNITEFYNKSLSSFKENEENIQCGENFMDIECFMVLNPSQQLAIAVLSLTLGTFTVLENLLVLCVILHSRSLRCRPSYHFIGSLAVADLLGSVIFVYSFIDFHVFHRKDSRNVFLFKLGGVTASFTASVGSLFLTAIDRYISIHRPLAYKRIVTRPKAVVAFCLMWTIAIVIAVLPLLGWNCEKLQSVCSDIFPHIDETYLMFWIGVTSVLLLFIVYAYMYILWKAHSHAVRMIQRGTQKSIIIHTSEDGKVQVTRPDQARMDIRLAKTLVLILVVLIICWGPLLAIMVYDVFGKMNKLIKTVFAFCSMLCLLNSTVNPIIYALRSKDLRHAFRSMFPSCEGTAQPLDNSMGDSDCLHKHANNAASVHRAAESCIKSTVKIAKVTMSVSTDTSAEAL
assay.endpoint: Ki (nM)
All answers are understood in nM, so give the number only.

Input: Please report Ki for the following compound: "CCCCCCC(C)(C)c1cc(O)c2c(c1)OC(C)(C)[C@@H]1CC=C(C(=O)NC#N)C[C@@H]21"
Output: 803

Input: Please report Ki for the following compound: "CCCCCCC(C)(C)c1cc(O)c2c(c1)OC(C)(C)[C@@H]1CC=C(C(=O)NC3COC3)C[C@@H]21"
Output: 10

Input: Please report Ki for the following compound: "CCCCCCC(C)(C)c1cc(O)c2c(c1)OC(C)(C)[C@@H]1CC=C(C(=O)NC3(C(F)(F)F)CCC3)C[C@@H]21"
Output: 25

Input: Please report Ki for the following compound: "CCCCCCC(C)(C)c1cc(O)c2c(c1)OC(C)(C)[C@@H]1CC=C(C(=O)NC3CC(F)(F)C3)C[C@@H]21"
Output: 62

Input: Please report Ki for the following compound: "CCCCCCC(C)(C)c1cc(O)c2c(c1)OC(C)(C)[C@@H]1CC=C(C(=O)NN3CCCCC3)C[C@@H]21"
Output: 233

Input: Please report Ki for the following compound: "CCCCCCC(C)(C)c1cc(O)c2c(c1)OC(C)(C)[C@@H]1CC=C(C(=O)N[C@H]3C[C@H](O)C3)C[C@@H]21"
Output: 144

Input: Please report Ki for the following compound: "CCCC(C)(C)c1cc(O)c2c(c1)OC(C)(C)[C@@H]1CC=C(C(=O)NC3(C(F)(F)F)CC3)C[C@@H]21"
Output: 860

Input: Please report Ki for the following compound: "CCCCCCC(C)(C)c1cc(O)c2c(c1)OC(C)(C)[C@@H]1CC=C(C#N)C[C@@H]21"
Output: 1

Input: Please report Ki for the following compound: "CCCCCCC(C)(C)c1cc(O)c2c(c1)OC(C)(C)[C@@H]1CC=C(C(=O)NC3CCC3)C[C@@H]21"
Output: 33.5

Input: Please report Ki for the following compound: "CCCCCCC(C)(C)c1cc(O)c2c(c1)OC(C)(C)[C@@H]1CC=C(C(=O)N3CCCCC3)C[C@@H]21"
Output: 243

Input: Please report Ki for the following compound: "CCCCCCC(C)(C)c1cc(O)c2c(c1)OC(C)(C)[C@@H]1CC=C(C(=O)NC(C)C)C[C@@H]21"
Output: 34.8

Input: Please report Ki for the following compound: "CCCCCCC(C)(C)c1cc(O)c2c(c1)OC(C)(C)[C@@H]1CC=C(C(=O)NC3CC3)C[C@@H]21"
Output: 45

Input: Please report Ki for the following compound: "CCCCCCC(C)(C)c1cc(O)c2c(c1)OC(C)(C)[C@@H]1CC=C(C(=O)NC3CNC3)C[C@@H]21"
Output: 270

Input: Please report Ki for the following compound: "CCCC(C)(C)c1cc(O)c2c(c1)OC(C)(C)[C@@H]1CC=C(C(=O)NC3CCCC3)C[C@@H]21"
Output: 780

Input: Please report Ki for the following compound: "CCCCCCC(C)(C)c1cc(O)c2c(c1)OC(C)(C)[C@@H]1CC=C(C(=O)NC(C)(C)C(F)(F)F)C[C@@H]21"
Output: 72.3

Input: Please report Ki for the following compound: "CCCCCCC(C)(C)c1cc(O)c2c(c1)OC(C)(C)[C@@H]1CC=C(C(=O)NC3(C(F)(F)F)CC3)C[C@@H]21"
Output: 8.9

Input: Please report Ki for the following compound: "CCCCCCC(C)(C)c1cc(O)c2c(c1)OC(C)(C)[C@@H]1CC=C(C(=O)NOC(C)(C)C)C[C@@H]21"
Output: 5.4

Input: Please report Ki for the following compound: "CCCCCCC(C)(C)c1cc(O)c2c(c1)OC(C)(C)[C@@H]1CC=C(C(=O)NCCO)C[C@@H]21"
Output: 350

Input: Please report Ki for the following compound: "CC(C)(CCCCCCO)c1cc(O)c2c(c1)OC(C)(C)[C@@H]1CC=C(C(=O)O)C[C@@H]21"
Output: 162

Input: Please report Ki for the following compound: "CCCCCCC(C)(C)c1cc(OC(C)=O)c2c(c1)OC(C)(C)[C@@H]1CC=C(C#N)C[C@@H]21"
Output: 6.8

Input: Please report Ki for the following compound: "CCCCCCC(C)(C)c1cc(O)c2c(c1)OC(C)(C)[C@@H]1CC=C(C(=O)NC(C)(C)C)C[C@@H]21"
Output: 31.1

Where do the numbers come from? From patent US20210284621A1.
